Recorded MIC by entry
Test system: Escherichia coli
Experiment: Antimicrobial activity against Escherichia coli isolate J53 harboring pEcA containing beta-lactamase OXA-48 located within transposon Tn1999.2 by Etest method
Assay type: functional
measuredMetric: MIC (µg/mL)

recordsmiles=C[C@H]1[C@H](NC(=O)/C(=N\OC(C)(C)C(=O)O)c2csc(N)n2)C(=O)N1S(=O)(=O)O qualifiersign== endpointvalue=0.06
recordsmiles=CC(C)(O/N=C(\C(=O)N[C@@H]1C(=O)N2C(C(=O)[O-])=C(C[n+]3ccccc3)CS[C@H]12)c1csc(N)n1)C(=O)O qualifiersign== endpointvalue=0.75
recordsmiles=C[C@@H](O)[C@H]1C(=O)N2C(C(=O)O)=C(S[C@@H]3CN[C@H](C(=O)N(C)C)C3)[C@H](C)[C@H]12 qualifiersign== endpointvalue=0.19
recordsmiles=CC1(C)S[C@@H]2[C@H](NC(=O)[C@H](C(=O)O)c3ccsc3)C(=O)N2[C@H]1C(=O)O qualifiersign=> endpointvalue=256
recordsmiles=CCN1CCN(C(=O)N[C@@H](C(=O)N[C@@H]2C(=O)N3[C@@H]2SC(C)(C)[C@@H]3C(=O)O)c2ccccc2)C(=O)C1=O qualifiersign== endpointvalue=128

---

System: Escherichia coli
Assay: Antimicrobial activity against Escherichia coli isolate J53 harboring pEnc2 containing beta-lactamase OXA-48 located within transposon Tn1999 by Etest method
Format: functional
measuredMetric: MIC (µg/mL)

compound="CC1(C)S[C@@H]2[C@H](NC(=O)[C@H](C(=O)O)c3ccsc3)C(=O)N2[C@H]1C(=O)O [TICARCILLIN]" measuredmetric=MIC qualifiersign=> endpointvalue=512
compound="CC1(C)S[C@@H]2[C@H](NC(=O)[C@H](N)c3ccc(O)cc3)C(=O)N2[C@H]1C(=O)O [AMOXICILLIN]" measuredmetric=MIC qualifiersign=> endpointvalue=512
compound="C[C@H]1[C@H](NC(=O)/C(=N\\OC(C)(C)C(=O)O)c2csc(N)n2)C(=O)N1S(=O)(=O)O [AZTREONAM]" measuredmetric=MIC qualifiersign== endpointvalue=0.06
compound="CC(C)(O/N=C(\\C(=O)N[C@@H]1C(=O)N2C(C(=O)[O-])=C(C[n+]3ccccc3)CS[C@H]12)c1csc(N)n1)C(=O)O [CEFTAZIDIME]" measuredmetric=MIC qualifiersign== endpointvalue=0.75
compound="C[C@@H](O)[C@H]1C(=O)N2C(C(=O)O)=C(SCCNC=N)C[C@H]12 [IMIPENEM ANHYDROUS]" measuredmetric=MIC qualifiersign== endpointvalue=0.75
compound="CC(=O)OCC1=C(C(=O)O)N2C(=O)[C@@H](NC(=O)Cc3cccs3)[C@H]2SC1 [CEPHALOTHIN]" measuredmetric=MIC qualifiersign== endpointvalue=16
compound="C[C@@H](O)[C@H]1C(=O)N2C(C(=O)O)=C(S[C@@H]3CN[C@H](C(=O)N(C)C)C3)[C@H](C)[C@H]12 [MEROPENEM]" measuredmetric=MIC qualifiersign== endpointvalue=0.12
compound="CO[C@@]1(NC(=O)Cc2cccs2)C(=O)N2C(C(=O)O)=C(COC(N)=O)CS[C@@H]21 [CEFOXITIN]" measuredmetric=MIC qualifiersign== endpointvalue=2
compound="CO/N=C(\\C(=O)N[C@@H]1C(=O)N2C(C(=O)O)=C(COC(C)=O)CS[C@H]12)c1csc(N)n1 [CEFOTAXIME]" measuredmetric=MIC qualifiersign== endpointvalue=0.25
compound=C[C@@H](O)[C@H]1C(=O)N2C(C(=O)O)=C(S[C@@H]3CN[C@H](C(=O)Nc4cccc(C(=O)O)c4)C3)[C@H](C)[C@H]12 measuredmetric=MIC qualifiersign== endpointvalue=0.19
compound="CCN1CCN(C(=O)N[C@@H](C(=O)N[C@@H]2C(=O)N3[C@@H]2SC(C)(C)[C@@H]3C(=O)O)c2ccccc2)C(=O)C1=O [PIPERACILLIN]" measuredmetric=MIC qualifiersign=> endpointvalue=512

---

Tested on: Escherichia coli
Test: Antimicrobial activity against Escherichia coli isolate J53 harboring pEcA containing beta-lactamase OXA-48 located within transposon Tn1999.2 by Etest method
Format: functional
Here, each record is paired with measured MIC data.
measuredMetric: MIC (µg/mL)

compound="C[C@@H](O)[C@H]1C(=O)N2C(C(=O)O)=C(SCCNC=N)C[C@H]12 [IMIPENEM ANHYDROUS]" targetundertest="Escherichia coli" qualifiersign== endpointvalue=0.75
compound="CO/N=C(\\C(=O)N[C@@H]1C(=O)N2C(C(=O)O)=C(COC(C)=O)CS[C@H]12)c1csc(N)n1 [CEFOTAXIME]" targetundertest="Escherichia coli" qualifiersign== endpointvalue=0.12
compound="CC1(C)S[C@@H]2[C@H](NC(=O)[C@H](N)c3ccc(O)cc3)C(=O)N2[C@H]1C(=O)O [AMOXICILLIN]" targetundertest="Escherichia coli" qualifiersign=> endpointvalue=256
compound=C[C@@H](O)[C@H]1C(=O)N2C(C(=O)O)=C(S[C@@H]3CN[C@H](C(=O)Nc4cccc(C(=O)O)c4)C3)[C@H](C)[C@H]12 targetundertest="Escherichia coli" qualifiersign== endpointvalue=0.25
compound="CO[C@@]1(NC(=O)Cc2cccs2)C(=O)N2C(C(=O)O)=C(COC(N)=O)CS[C@@H]21 [CEFOXITIN]" targetundertest="Escherichia coli" qualifiersign== endpointvalue=2
compound=CO/N=C(\C(=O)N[C@@H]1C(=O)N2C(C(=O)[O-])=C(C[N+]3(C)CCCC3)CS[C@H]12)c1csc(N)n1 targetundertest="Escherichia coli" qualifiersign== endpointvalue=0.12
compound="CC(=O)OCC1=C(C(=O)O)N2C(=O)[C@@H](NC(=O)Cc3cccs3)[C@H]2SC1 [CEPHALOTHIN]" targetundertest="Escherichia coli" qualifiersign== endpointvalue=16

---

Test system: Klebsiella pneumoniae
Experiment: Antimicrobial activity against Klebsiella pneumoniae isolate Kp7A expressing beta-lactamase OXA-48 by Etest method
Assay type: functional
Entries and their MIC values follow.
measuredMetric: MIC

molecule=C[C@H]1[C@H](NC(=O)/C(=N\OC(C)(C)C(=O)O)c2csc(N)n2)C(=O)N1S(=O)(=O)O targetundertest="Klebsiella pneumoniae" measuredmetric=MIC endpointvalue="0.06 µg/mL"
molecule=C[C@@H](O)[C@H]1C(=O)N2C(C(=O)O)=C(S[C@@H]3CN[C@H](C(=O)Nc4cccc(C(=O)O)c4)C3)[C@H](C)[C@H]12 targetundertest="Klebsiella pneumoniae" measuredmetric=MIC endpointvalue="> 32 µg/mL"
molecule=C[C@@H](O)[C@H]1C(=O)N2C(C(=O)O)=C(S[C@@H]3CN[C@H](C(=O)N(C)C)C3)[C@H](C)[C@H]12 targetundertest="Klebsiella pneumoniae" measuredmetric=MIC endpointvalue="> 32 µg/mL"
molecule="C[C@@H](O)[C@H]1C(=O)N2C(C(=O)O)=C(SCCNC=N)C[C@H]12 [IMIPENEM ANHYDROUS]" targetundertest="Klebsiella pneumoniae" measuredmetric=MIC endpointvalue="> 32 µg/mL"
molecule=CC(C)(O/N=C(\C(=O)N[C@@H]1C(=O)N2C(C(=O)[O-])=C(C[n+]3ccccc3)CS[C@H]12)c1csc(N)n1)C(=O)O targetundertest="Klebsiella pneumoniae" measuredmetric=MIC endpointvalue="0.12 µg/mL"

---

Tested on: Klebsiella pneumoniae
Experiment: Antimicrobial activity against Klebsiella pneumoniae isolate Kp7A expressing beta-lactamase OXA-48 by Etest method
Format: functional
measuredMetric: MIC (µg/mL)

molecule=CO/N=C(\C(=O)N[C@@H]1C(=O)N2C(C(=O)[O-])=C(C[N+]3(C)CCCC3)CS[C@H]12)c1csc(N)n1 measuredmetric=MIC resultunits=µg/mL qualifiersign== endpointvalue=0.5
molecule="CC(=O)OCC1=C(C(=O)O)N2C(=O)[C@@H](NC(=O)Cc3cccs3)[C@H]2SC1 [CEPHALOTHIN]" measuredmetric=MIC resultunits=µg/mL qualifiersign=> endpointvalue=512
molecule="CO[C@@]1(NC(=O)Cc2cccs2)C(=O)N2C(C(=O)O)=C(COC(N)=O)CS[C@@H]21 [CEFOXITIN]" measuredmetric=MIC resultunits=µg/mL qualifiersign== endpointvalue=128
molecule="CO/N=C(\\C(=O)N[C@@H]1C(=O)N2C(C(=O)O)=C(COC(C)=O)CS[C@H]12)c1csc(N)n1 [CEFOTAXIME]" measuredmetric=MIC resultunits=µg/mL qualifiersign== endpointvalue=0.5
molecule="CC1(C)S[C@@H]2[C@H](NC(=O)[C@H](N)c3ccc(O)cc3)C(=O)N2[C@H]1C(=O)O [AMOXICILLIN]" measuredmetric=MIC resultunits=µg/mL qualifiersign=> endpointvalue=512
molecule="CCN1CCN(C(=O)N[C@@H](C(=O)N[C@@H]2C(=O)N3[C@@H]2SC(C)(C)[C@@H]3C(=O)O)c2ccccc2)C(=O)C1=O [PIPERACILLIN]" measuredmetric=MIC resultunits=µg/mL qualifiersign=> endpointvalue=512
molecule="CC1(C)S[C@@H]2[C@H](NC(=O)[C@H](C(=O)O)c3ccsc3)C(=O)N2[C@H]1C(=O)O [TICARCILLIN]" measuredmetric=MIC resultunits=µg/mL qualifiersign=> endpointvalue=512

Ref: ChEMBL document CHEMBL1255404
